Values were extracted from patent US20100260765A1.

target: T1, soluble KDR extracellular domain (ECD) (Calbiochem) (human, UniProt P35968 20-764); assay: Limited Antigen ELISA, KDR coat 25 ng/mL, supernatant 1:25
T1 construct: extracellular domain; Bought protein; also called KDR-ECD; VEGF Receptor 2 D1-7, Cat. #676490
T1 sequence (P35968 20-764): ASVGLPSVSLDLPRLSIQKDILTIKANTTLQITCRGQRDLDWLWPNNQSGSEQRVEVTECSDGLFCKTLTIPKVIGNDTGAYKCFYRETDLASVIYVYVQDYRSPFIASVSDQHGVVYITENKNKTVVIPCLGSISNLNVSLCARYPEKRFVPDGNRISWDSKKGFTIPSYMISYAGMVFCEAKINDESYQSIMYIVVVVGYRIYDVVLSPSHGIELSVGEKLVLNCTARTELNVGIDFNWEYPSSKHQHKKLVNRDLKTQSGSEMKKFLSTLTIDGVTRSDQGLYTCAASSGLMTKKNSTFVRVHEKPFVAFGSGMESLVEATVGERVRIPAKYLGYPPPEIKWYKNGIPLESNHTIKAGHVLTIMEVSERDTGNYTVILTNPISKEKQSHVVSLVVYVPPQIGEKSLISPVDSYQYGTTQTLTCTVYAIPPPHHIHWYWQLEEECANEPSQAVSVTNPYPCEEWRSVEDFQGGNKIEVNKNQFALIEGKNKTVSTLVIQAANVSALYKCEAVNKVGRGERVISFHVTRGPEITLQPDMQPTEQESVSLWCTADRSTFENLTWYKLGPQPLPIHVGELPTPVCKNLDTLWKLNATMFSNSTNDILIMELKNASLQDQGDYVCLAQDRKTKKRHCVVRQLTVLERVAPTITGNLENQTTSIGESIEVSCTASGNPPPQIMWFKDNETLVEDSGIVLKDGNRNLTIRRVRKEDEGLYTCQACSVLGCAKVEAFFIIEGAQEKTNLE
Would you mind telling me the reported ELISA reading of each entry?
Numbers only.

Some solved entries appear below for comparison.
Binder: 30D7 (antibody, V domains shown, Fully human mAb from XenoMouse hybridoma, tested as hybridoma supernatant) VH: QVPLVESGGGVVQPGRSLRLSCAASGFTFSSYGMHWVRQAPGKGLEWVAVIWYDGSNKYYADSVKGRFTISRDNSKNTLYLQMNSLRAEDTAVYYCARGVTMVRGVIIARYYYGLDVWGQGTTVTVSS VL: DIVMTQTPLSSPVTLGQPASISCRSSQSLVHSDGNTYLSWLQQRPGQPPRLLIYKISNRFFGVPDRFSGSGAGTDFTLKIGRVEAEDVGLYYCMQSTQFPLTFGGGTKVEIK
ELISA reading: 1.51

Binder: 33C3 (antibody, V domains shown, Fully human mAb from XenoMouse hybridoma, tested as hybridoma supernatant) VH: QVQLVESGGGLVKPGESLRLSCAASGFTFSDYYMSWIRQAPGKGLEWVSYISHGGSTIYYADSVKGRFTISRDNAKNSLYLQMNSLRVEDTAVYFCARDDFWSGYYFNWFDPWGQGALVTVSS VL: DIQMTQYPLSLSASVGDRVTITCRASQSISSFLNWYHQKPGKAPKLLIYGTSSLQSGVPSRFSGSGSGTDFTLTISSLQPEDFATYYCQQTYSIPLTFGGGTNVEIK
ELISA reading: 1.32

Binder: 29F7 (antibody, V domains shown, Fully human mAb from XenoMouse hybridoma, tested as hybridoma supernatant) VH: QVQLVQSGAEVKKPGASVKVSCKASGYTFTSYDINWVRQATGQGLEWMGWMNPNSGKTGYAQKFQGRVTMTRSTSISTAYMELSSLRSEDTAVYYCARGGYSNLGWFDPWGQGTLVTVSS VL: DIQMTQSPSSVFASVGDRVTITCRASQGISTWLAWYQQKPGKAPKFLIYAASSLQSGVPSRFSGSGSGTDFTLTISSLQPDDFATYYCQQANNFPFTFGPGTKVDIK
ELISA reading: 2.19

Now for a further binder.
Prompt line: Please give the measured ELISA reading for this binder: 22B8 (antibody, V domains shown, Fully human mAb from XenoMouse hybridoma, tested as hybridoma supernatant) VH: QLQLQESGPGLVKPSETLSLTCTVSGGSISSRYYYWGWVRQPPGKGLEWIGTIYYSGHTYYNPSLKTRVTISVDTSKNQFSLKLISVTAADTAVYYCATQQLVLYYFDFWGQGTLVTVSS VL: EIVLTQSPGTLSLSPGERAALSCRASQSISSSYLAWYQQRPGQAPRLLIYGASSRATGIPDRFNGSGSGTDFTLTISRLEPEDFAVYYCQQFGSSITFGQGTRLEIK
Response line: 1.84
